I'd be grateful if you could share measured self-cleavage for these entries.
B1: LINE1-full (parent)
chain: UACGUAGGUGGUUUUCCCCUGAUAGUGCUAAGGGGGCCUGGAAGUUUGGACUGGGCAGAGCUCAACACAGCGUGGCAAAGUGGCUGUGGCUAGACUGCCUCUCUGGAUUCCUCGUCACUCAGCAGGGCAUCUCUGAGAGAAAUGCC

Variants of: B1
Test name: self-cleavage, relative activity (ratio to wild type); higher = more cleavage; in vitro, sequencing; the parent is a self-cleaving ribozyme
Give bare numbers.

Sample records with self-cleavage:
A31G U112C ... 1.3
A67U A94U ... 0.05
A6G C66U ... 0.15
G83A A136G ... 1.05
U29C G89A ... 0.06

Please give self-cleavage, item by item, for the list that follows.
1. A78G U102A
2. A24U A30G
3. A42U C66A

A:
1.24
1.09
0.03
